assay: Selectivity index, ratio of IC50 for cytotoxicity against human MRC5 cells to IC50 for antiproliferative activity against human A549 cells; assay type: toxicity, cell-based; conditions: read-out: Ratio IC50
readout type: selectivity ratio
Just the number, please, no unit attached.

Check out these entries, answers already filled in.
molecule: O=c1n(S(=O)(=O)c2c(F)c(F)c(F)c(F)c2F)ccn1S(=O)(=O)c1c(F)c(F)c(F)c(F)c1F
selectivity ratio: 3.1

molecule: O=c1n(S(=O)(=O)c2ccc(OC(F)(F)F)cc2)ccn1S(=O)(=O)c1ccc(OC(F)(F)F)cc1
selectivity ratio: 1.06

Look at this molecule and give its reported selectivity ratio. O=c1n(S(=O)(=O)c2ccccc2C(F)(F)F)ccn1S(=O)(=O)c1ccccc1C(F)(F)F 1.52
